Listed binders paired with reported koff
Biological target: T1, human soluble urokinase plasminogen activator receptor (suPAR) (human, UniProt Q03405 23-303, limits assumed)
T1 construct: Target antigen of the off-rate screen; also called hsuPAR; human suPAR
T1 sequence (Q03405 23-303 limits assumed): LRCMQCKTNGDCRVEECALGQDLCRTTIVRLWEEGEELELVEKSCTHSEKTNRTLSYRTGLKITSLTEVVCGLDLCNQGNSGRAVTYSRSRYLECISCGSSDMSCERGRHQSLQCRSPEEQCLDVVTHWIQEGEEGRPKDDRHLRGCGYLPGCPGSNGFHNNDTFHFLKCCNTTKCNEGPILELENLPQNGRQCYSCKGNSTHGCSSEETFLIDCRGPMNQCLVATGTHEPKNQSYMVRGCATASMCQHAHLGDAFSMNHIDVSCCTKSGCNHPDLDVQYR
Assay: off-rate (kdis) screen of scFv clones, biosensor (Octet)
The answer is to be given in s⁻¹; state only the numeric part.

Use the examples below as a reference point.
suPAR_DB01_D09 (scFv, V domains shown, screened as scFv) VH: QVQLVQSGAEVKKPGASVKVSCKASGYTFTNYYMHWVRQAPGQGLEWMGWIDHSNGNTIYAQKFQGRVTMTRDTSTSTVYMELSSLRSEDTAVYYCARGYDVDWFVYWGQGTLVTVSS VL: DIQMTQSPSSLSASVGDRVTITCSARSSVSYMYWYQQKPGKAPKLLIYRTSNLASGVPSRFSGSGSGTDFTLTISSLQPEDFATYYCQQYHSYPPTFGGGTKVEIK has a reported koff of 0.00109

# binder suPAR_DB01_A06 (scFv, V domains shown, screened as scFv) VH: QVQLVQSGAEVKKPGASVKVSCKASGYTFTSYYMHWVRQAPGQGLEWMGWIDHENGNTIYDQKFQGRVTMTRDTSTSTVYMELSSLRSEDTAVYYCARGYDVDWFVYWGQGTLVTVSS VL: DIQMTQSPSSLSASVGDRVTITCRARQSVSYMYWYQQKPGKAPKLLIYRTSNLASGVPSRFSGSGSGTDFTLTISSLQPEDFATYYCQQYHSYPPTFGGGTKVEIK ; its koff = 0.00253

Now consider the entry below.
Entry suPAR_DB01_E09 (scFv, V domains shown, screened as scFv) VH: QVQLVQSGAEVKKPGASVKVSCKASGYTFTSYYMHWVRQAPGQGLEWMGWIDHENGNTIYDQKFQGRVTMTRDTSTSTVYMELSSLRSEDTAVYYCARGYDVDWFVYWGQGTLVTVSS VL: DIQMTQSPSSLSASVGDRVTITCSARSSISYMYWYQQKPGKAPKLLIYRTSNLQSGVPSRFSGSGSGTDFTLTISSLQPEDFATYYCQQYHSYPPTFGGGTKVEIK , koff reported as 0.00446

Origin of measurements: patent US20250215104A1
